# System: P. aeruginosa ATCC 35151
# Protocol Notes: Broth microdilution MIC in CAMHB
# Assay type: cell-based
# Reported Conditions: Pseudomonas aeruginosa, ATCC35151; MHB; hyper-permeable strain; read-out: Minimum Inhibitory Concentration, P. aeruginosa ATCC 35151
Metric Name: MIC

compound="NCCCN1CCN(C(=O)N[C@@H](C(=O)N[C@H]2Cc3cccc(C(=O)O)c3OB2O)c2cccc(NS(N)(=O)=O)c2)C(=O)C1=O [Example 117]" measurement="< 0.25 µg/mL"
compound="NCCN1CCN(C(=O)N[C@H](C(=O)N[C@H]2Cc3cccc(C(=O)O)c3OB2O)c2cc(F)c(O)c(F)c2F)C(=O)C1=O (single isomer, unassigned) [Example 167]" measurement="0.5 to 1 µg/mL"
compound="CCN1C[C@H](C)N(C(=O)NC(C(=O)N[C@H]2Cc3cccc(C(=O)O)c3OB2O)c2c(F)cc(O)cc2F)C(=O)C1=O (stereo partly drawn) [Example 232]" measurement="2 to 4 µg/mL"

###

# Tested Target: UniProt:P0AD68
# Sequence (P0AD68 1-577): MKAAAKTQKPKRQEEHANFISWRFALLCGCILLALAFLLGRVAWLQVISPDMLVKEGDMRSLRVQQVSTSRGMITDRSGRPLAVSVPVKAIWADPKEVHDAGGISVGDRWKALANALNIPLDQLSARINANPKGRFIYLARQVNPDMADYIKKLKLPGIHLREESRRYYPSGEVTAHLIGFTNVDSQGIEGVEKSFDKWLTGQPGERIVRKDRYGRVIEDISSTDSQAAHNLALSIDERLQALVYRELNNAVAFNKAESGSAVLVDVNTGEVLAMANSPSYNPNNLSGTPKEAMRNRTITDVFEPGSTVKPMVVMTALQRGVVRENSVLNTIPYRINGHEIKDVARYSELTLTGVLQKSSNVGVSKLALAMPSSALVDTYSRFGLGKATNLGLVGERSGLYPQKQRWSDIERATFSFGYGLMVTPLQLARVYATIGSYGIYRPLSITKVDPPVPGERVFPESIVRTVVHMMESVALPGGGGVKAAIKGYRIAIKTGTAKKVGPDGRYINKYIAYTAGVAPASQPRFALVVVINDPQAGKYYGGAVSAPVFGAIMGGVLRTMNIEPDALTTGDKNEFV
# Protocol Notes: biochemical
pEC50: −log10 of the molar value.
Metric Name: pEC50

compound="NCCN1CCN(C(=O)N[C@H](C(=O)N[C@H]2Cc3cccc(C(=O)O)c3OB2O)c2ccc(O)c(Cl)c2F)C(=O)C1=O (single isomer, unassigned)" metric_name=pEC50 measurement="3.30 to 4.52"
compound=NCCN1CCN(C(=O)N[C@@H](C(=O)N[C@H]2Cc3cccc(C(=O)O)c3OB2O)c2cc(Cl)c(O)cc2Cl)C(=O)C1=O metric_name=pEC50 measurement="> 4.52"
compound=C[C@@H](O)[C@@H](NC(=O)N1CCN(CCNC(=O)c2c(F)cc(O)c(O)c2Cl)C(=O)C1=O)C(=O)N[C@H]1Cc2ccc(F)c(C(=O)O)c2OB1O metric_name=pEC50 measurement="3.30 to 4.52"
compound="CS(=O)(=O)N1CCN(C(=O)N[C@@H](C(=O)N[C@H]2Cc3ccc(F)c(C(=O)O)c3OB2O)c2c(F)cc(O)c(O)c2Cl)C1=O (single isomer, unassigned)" metric_name=pEC50 measurement="> 4.52"
compound="CCN1CCN(C(=O)NC(C(=O)N[C@H]2Cc3ccc(C=O)c(C(=O)O)c3OB2O)c2csc(N)n2)C(=O)C1=O (stereo partly drawn)" metric_name=pEC50 measurement="3.30 to 4.52"
compound="NC1(CN2CCN(C(=O)N[C@H](C(=O)N[C@H]3Cc4cccc(C(=O)O)c4OB3O)c3ccc(O)c(F)c3F)C(=O)C2=O)CC1 (single isomer, unassigned)" metric_name=pEC50 measurement="3.30 to 4.52"
compound="CCN1CCN(C(=O)NC(C(=O)N[C@H]2Cc3cccc(C(=O)O)c3OB2O)c2c(F)cc(N)cc2F)C(=O)C1=O (stereo partly drawn)" metric_name=pEC50 measurement="> 4.52"
compound="NCCN1CCN(C(=O)N[C@@H](C(=O)N[C@H]2Cc3cccc(C(=O)O)c3OB2O)c2ccc(O)c([N+](=O)[O-])c2)C(=O)C1=O (single isomer, unassigned)" metric_name=pEC50 measurement="> 4.52"
compound="CCN1CCN(C(=O)NC(C(=O)N[C@H]2Cc3cccc(C(=O)O)c3OB2O)c2cc(F)c(C(=O)O)cc2F)C(=O)C1=O (stereo partly drawn)" metric_name=pEC50 measurement="> 4.52"
compound="CCN1CCN(C(=O)NC(C(=O)N[C@H]2Cc3cccc(C(=O)O)c3OB2O)c2ccc(N)c(F)c2)C(=O)C1=O (stereo partly drawn)" metric_name=pEC50 measurement="> 4.52"
compound="CCN1CCN(C(=O)NC(C(=O)N[C@H]2Cc3cccc(C(=O)O)c3OB2O)c2ccc(O)cc2OC)C(=O)C1=O (stereo partly drawn)" metric_name=pEC50 measurement="3.30 to 4.52"
compound="NC1(CN2CCN(C(=O)N[C@@H](C(=O)N[C@H]3Cc4ccc(F)c(C(=O)O)c4OB3O)c3c(F)cc(O)c(O)c3Cl)C(=O)C2=O)CC1 (single isomer, unassigned)" metric_name=pEC50 measurement="3.30 to 4.52"
